system: Human red blood cells (RBCs); test: Hemolytic activity; type: cell-based; conditions: Tables 18-21
Square brackets hold non-standard residues; d marks the D form. Peptide text beside a SMILES is read from it. * marks the point of attachment. Met(O2) = CS(=O)(=O)CC[C@H](N)C(=O)O; Fmoc = O=C(OCC1c2ccccc2-c2ccccc21)*; Abu = CC[C@H](N)C(=O)O
Recorded HD50 (concentration necessary to lyse 50% of the cells) by entry
readout: HD50 (concentration necessary to lyse 50% of the cells) (µg/mL)

compound	units.label	assay.value
CC[C@H](C)[C@H](NC(=O)[C@@H](Cc1ccccc1)NC(=O)[C@H](Cc1c[nH]c2ccccc12)NC(=O)[C@H](CCCCN)NC(=O)OCC1c2ccccc2-c2ccccc21)C(N)=O [(KFmoc)WfI-NH2] (Fmoc-KW[dF]I-NH2)	µg/mL	208
NCCCC[C@H](NC(=O)OCC1c2ccccc2-c2ccccc21)C(=O)N[C@@H](Cc1c[nH]c2ccccc12)C(=O)N[C@@H](CCCCN)C(=O)N[C@H](Cc1ccc(O)cc1)C(N)=O [(KFmoc)WKy-NH2] (Fmoc-KWK[dY]-NH2)	µg/mL	368
CC[C@H](NC(=O)[C@H](Cc1ccc(O)cc1)NC(=O)[C@H](Cc1c[nH]c2ccccc12)NC(=O)[C@H](CCCCN)NC(=O)OCC1c2ccccc2-c2ccccc21)C(N)=O [(KFmoc)WY(aABA)-NH2] (Fmoc-KWY[Abu]-NH2)	µg/mL	114
NCCCC[C@H](NC(=O)OCC1c2ccccc2-c2ccccc21)C(=O)N[C@@H](Cc1c[nH]c2ccccc12)C(=O)N[C@@H](CCCCN)C(=O)N[C@H](CCC(N)=O)C(N)=O [(KFmoc)WKq-NH2] (Fmoc-KWK[dQ]-NH2)	µg/mL	483
N=C(N)NCCC[C@@H](NC(=O)[C@@H](Cc1ccccc1)NC(=O)[C@H](Cc1c[nH]c2ccccc12)NC(=O)[C@H](CCCCN)NC(=O)OCC1c2ccccc2-c2ccccc21)C(N)=O [(KFmoc)Wfr-NH2] (Fmoc-KW[dF][dR]-NH2)	µg/mL	42
N=C(N)NCCC[C@@H](NC(=O)[C@H](Cc1ccc(O)cc1)NC(=O)[C@H](Cc1c[nH]c2ccccc12)NC(=O)[C@H](CCCCN)NC(=O)OCC1c2ccccc2-c2ccccc21)C(N)=O [(KFmoc)WYr-NH2] (Fmoc-KWY[dR]-NH2)	µg/mL	31
CC[C@@H](C)[C@@H](NC(=O)[C@@H](CS)NC(=O)[C@H](CCCCN)NC(=O)OCC1c2ccccc2-c2ccccc21)C(=O)N[C@@H](CCS(C)(=O)=O)C(N)=O [(KFmoc)ci(MetO2)-NH2] (Fmoc-K[dC][dI][Met(O2)]-NH2)	µg/mL	40
CC[C@H](C)[C@H](NC(=O)[C@H](CCCCN)NC(=O)[C@H](Cc1c[nH]c2ccccc12)NC(=O)[C@H](CCCCN)NC(=O)OCC1c2ccccc2-c2ccccc21)C(N)=O [(KFmoc)WKI-NH2] (Fmoc-KWKI-NH2)	µg/mL	141
C[C@H](O)[C@@H](NC(=O)[C@H](CCCCN)NC(=O)[C@H](Cc1c[nH]c2ccccc12)NC(=O)[C@H](CCCCN)NC(=O)OCC1c2ccccc2-c2ccccc21)C(N)=O [(KFmoc)WKt-NH2] (Fmoc-KWK[dT]-NH2)	µg/mL	435
